IC50 listing for selected molecules.
- assayed-system: Polyunsaturated fatty acid 5-lipoxygenase (Rattus norvegicus)
- Sequence (P12527 whole entry): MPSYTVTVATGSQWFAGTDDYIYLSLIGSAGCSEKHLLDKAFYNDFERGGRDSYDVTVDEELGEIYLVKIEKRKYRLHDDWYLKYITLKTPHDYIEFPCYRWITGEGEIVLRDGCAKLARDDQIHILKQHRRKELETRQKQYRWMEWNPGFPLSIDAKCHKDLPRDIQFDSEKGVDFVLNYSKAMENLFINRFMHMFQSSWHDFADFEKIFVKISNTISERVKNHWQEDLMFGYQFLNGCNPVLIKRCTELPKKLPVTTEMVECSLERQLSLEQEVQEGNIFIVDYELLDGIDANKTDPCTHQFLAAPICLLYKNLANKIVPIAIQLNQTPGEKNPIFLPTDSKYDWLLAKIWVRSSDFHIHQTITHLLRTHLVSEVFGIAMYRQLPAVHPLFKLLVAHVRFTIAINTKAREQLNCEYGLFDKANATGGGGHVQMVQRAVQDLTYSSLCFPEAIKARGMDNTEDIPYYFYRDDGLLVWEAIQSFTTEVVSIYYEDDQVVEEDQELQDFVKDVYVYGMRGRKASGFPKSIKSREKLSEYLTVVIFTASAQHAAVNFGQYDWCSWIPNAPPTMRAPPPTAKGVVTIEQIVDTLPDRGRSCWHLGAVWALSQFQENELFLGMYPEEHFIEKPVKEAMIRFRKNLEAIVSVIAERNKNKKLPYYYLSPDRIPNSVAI
- test-details: Inhibitory activity against 5-lipoxygenase in rat neutrophils as inhibition of A 23,187-induced LTB4 production
Answer in µM, number only, no unit symbol.

# input Report value: IC50, system: Polyunsaturated fatty acid 5-lipoxygenase (Rattus norvegicus), molecule: COc1ccc2[nH]c(-c3cc(C)c(O)c(C)c3)c(C)c2c1
# output 0.11

# input Report value: IC50, system: Polyunsaturated fatty acid 5-lipoxygenase (Rattus norvegicus), molecule: Cc1cccnc1N1CCN(CCC2Cn3c(-c4ccc(O)cc4)c(C)c4cccc(c43)O2)CC1 (stereo unspecified)
# output 2.3

# input Report value: IC50, system: Polyunsaturated fatty acid 5-lipoxygenase (Rattus norvegicus), molecule: Cc1ccnc(N2CCN(CCC3Cn4c(-c5cc(C)c(O)c(C)c5)c(C)c5cccc(c54)O3)CC2)c1 (stereo unspecified)
# output 1.5
